Source of measurements: ChEMBL document CHEMBL3044763

This section presents compounds with their documented mortality at 120 h values.
Experiment: Toxicity in Mus musculus ddY (mouse) assessed as mortality at 300 mg/kg, ip after 5 days
Type: organism-based
Design: dose 300 mg/kg, route intraperitoneal
Details: in vivo
measured quantity: mortality at 120 h (%)

1) CN1C(=O)CSC1=S [3-METHYL-RHODANINE]    80
2) O=C1CSC(=S)N1 [RHODANINE]    40

* * *

Assay: Toxicity in Mus musculus ddY (mouse) assessed as mortality at 600 mg/kg, ip after 4 days
Type: organism-based
Parameters: dose 600 mg/kg, route intraperitoneal
Conditions: in vivo
measured quantity: mortality at 96 h (%)

1. O=C(O)CN1C(=O)CSC1=S    80

* * *

Assay: Toxicity in Mus musculus ddY (mouse) assessed as mortality at 350 mg/kg, ip after 5 days
Format: organism-based
Set-up: dose 350 mg/kg, route intraperitoneal
Settings: in vivo
measured quantity: mortality at 120 h

1) O=C1CSC(=S)N1    80%

* * *

Experiment: Toxicity in Mus musculus ddY (mouse) assessed as mortality at 8 mg/kg, ip after 5 days
Type: organism-based
Design: dose 8 mg/kg, route intraperitoneal
Conditions: in vivo
measured quantity: mortality at 120 h (%)

1) NN1C(=O)CSC1=S [AMINORHODANINE]    100

* * *

Experiment: Toxicity in Mus musculus ddY (mouse) assessed as mortality at 4 mg/kg, ip after 5 days
Assay type: organism-based
Set-up: dose 4 mg/kg, route intraperitoneal
Conditions: in vivo
measured quantity: mortality at 120 h (%)

1. NN1C(=O)CSC1=S [AMINORHODANINE]    20

* * *

Entries and their Activity
Tested on: Brassica rapa subsp. oleifera
Experiment: Growth inhibition of Brassica rapa subsp. oleifera assessed as total chlorophyll level at 5 x 10^-5 M after 7 days
Type: functional
Parameters: scale not given: the % may be the effect or the level left
measured quantity: Activity (%)

1) O=C1CSC(=S)N1 [RHODANINE]    19.17
2) NN1C(=O)CSC1=S [AMINORHODANINE]    13.57
3) O=C([O-])COc1ccc(Cl)cc1Cl.[Na+]    16.35
4) O=C(O)CN1C(=O)CSC1=S [RHODANINE-3-ACETIC ACID]    24.42
5) CC(=O)NN1C(=O)CSC1=S [N-ACETYLAMINORHODANINE]    17.47
6) CN1C(=O)CSC1=S [3-METHYL-RHODANINE]    18.62
7) O=C(NN1C(=O)CSC1=S)c1ccccc1 [N-BENZOYLAMINORHODANINE]    19.54

* * *

Assay: Toxicity in Mus musculus ddY (mouse) assessed as mortality at 3 mg/kg, ip after 6 days
Assay type: organism-based
Parameters: dose 3 mg/kg, route intraperitoneal
Details: in vivo
measured quantity: mortality at 144 h

1) NN1C(=O)CSC1=S    0%

* * *

Test: Toxicity in Mus musculus ddY (mouse) assessed as mortality at 325 mg/kg, ip after 2 days
Assay type: organism-based
Design: dose 325 mg/kg, route intraperitoneal
Conditions: in vivo
measured quantity: mortality at 48 h (%)

1. CN1C(=O)CSC1=S [3-METHYL-RHODANINE]    60
2. O=C1CSC(=S)N1 [RHODANINE]    80

* * *

Assay: Toxicity in Mus musculus ddY (mouse) assessed as mortality at 4 mg/kg, ip after 2 days
Assay type: organism-based
Set-up: dose 4 mg/kg, route intraperitoneal
Settings: in vivo
measured quantity: mortality at 48 h

1) NN1C(=O)CSC1=S    20%

* * *

Experiment: Toxicity in Mus musculus ddY (mouse) assessed as mortality at 325 mg/kg, ip after 6 days
Format: organism-based
Design: dose 325 mg/kg, route intraperitoneal
Settings: in vivo
measured quantity: mortality at 144 h

1) O=C1CSC(=S)N1    80%
2) CN1C(=O)CSC1=S    100%

* * *

Assay: Toxicity in Mus musculus ddY (mouse) assessed as mortality at 650 mg/kg, ip after 7 days
Format: organism-based
Design: dose 650 mg/kg, route intraperitoneal
Settings: in vivo
measured quantity: mortality at 168 h (%)

1) O=C(O)CN1C(=O)CSC1=S [RHODANINE-3-ACETIC ACID]    100

* * *

Assay: Toxicity in Mus musculus ddY (mouse) assessed as mortality at 500 mg/kg, ip after 6 days
Type: organism-based
Design: dose 500 mg/kg, route intraperitoneal
Conditions: in vivo
measured quantity: mortality at 144 h (%)

1. O=C(O)CN1C(=O)CSC1=S    40

* * *

Assay: Toxicity in Mus musculus ddY (mouse) assessed as mortality at 3 mg/kg, ip after 3 days
Type: organism-based
Set-up: dose 3 mg/kg, route intraperitoneal
Settings: in vivo
measured quantity: mortality at 72 h

1) NN1C(=O)CSC1=S [AMINORHODANINE]    0%

* * *

Assay: Toxicity in Mus musculus ddY (mouse) assessed as mortality at 450 mg/kg, ip after 3 days
Format: organism-based
Parameters: dose 450 mg/kg, route intraperitoneal
Conditions: in vivo
measured quantity: mortality at 72 h

1. O=C(O)CN1C(=O)CSC1=S    0%

* * *

Test: Toxicity in Mus musculus ddY (mouse) assessed as mortality at 300 mg/kg, ip after 1 day
Format: organism-based
Set-up: dose 300 mg/kg, route intraperitoneal
Settings: in vivo
Reported mortality at 24 h values follow for various compounds
measured quantity: mortality at 24 h

1) O=C1CSC(=S)N1    0%
2) CN1C(=O)CSC1=S    40%

* * *

Assay: Toxicity in Mus musculus ddY (mouse) assessed as mortality at 6 mg/kg, ip after 1 day
Type: organism-based
Parameters: dose 6 mg/kg, route intraperitoneal
Conditions: in vivo
measured quantity: mortality at 24 h (%)

1) NN1C(=O)CSC1=S    60

* * *

Assay: Toxicity in Mus musculus ddY (mouse) assessed as mortality at 400 mg/kg, ip after 6 days
Type: organism-based
Set-up: dose 400 mg/kg, route intraperitoneal
Details: in vivo
measured quantity: mortality at 144 h (%)

1. O=C(O)CN1C(=O)CSC1=S [RHODANINE-3-ACETIC ACID]    0
2. O=C1CSC(=S)N1 [RHODANINE]    100

* * *

Assay: Toxicity in Mus musculus ddY (mouse) assessed as mortality at 600 mg/kg, ip after 5 days
Type: organism-based
Set-up: dose 600 mg/kg, route intraperitoneal
Details: in vivo
measured quantity: mortality at 120 h (%)

1. O=C(O)CN1C(=O)CSC1=S    80

* * *

Experiment: Toxicity in Mus musculus ddY (mouse) assessed as mortality at 3 mg/kg, ip after 4 days
Format: organism-based
Parameters: dose 3 mg/kg, route intraperitoneal
Details: in vivo
measured quantity: mortality at 96 h (%)

1. NN1C(=O)CSC1=S    0

* * *

Experiment: Toxicity in Mus musculus ddY (mouse) assessed as mortality at 225 mg/kg, ip after 1 day
Assay type: organism-based
Parameters: dose 225 mg/kg, route intraperitoneal
Conditions: in vivo
measured quantity: mortality at 24 h (%)

1. CN1C(=O)CSC1=S    20

* * *

Assay: Toxicity in ip dosed Mus musculus ddY (mouse) assessed as mortality after 1 to 7 days
Assay type: organism-based
Details: in vivo
measured quantity: LD50 (mg/kg)

1. O=C(O)CN1C(=O)CSC1=S [RHODANINE-3-ACETIC ACID]    510
2. CN1C(=O)CSC1=S [3-METHYL-RHODANINE]    255
3. NN1C(=O)CSC1=S [AMINORHODANINE]    5.07
4. O=C1CSC(=S)N1 [RHODANINE]    311

* * *

Assay: Toxicity in Mus musculus ddY (mouse) assessed as mortality at 250 mg/kg, ip after 5 days
Assay type: organism-based
Design: dose 250 mg/kg, route intraperitoneal
Conditions: in vivo
measured quantity: mortality at 120 h (%)

1) CN1C(=O)CSC1=S    40

* * *

Entries and their measured mortality at 144 h follow.
Test: Toxicity in Mus musculus ddY (mouse) assessed as mortality at 300 mg/kg, ip after 6 days
Type: organism-based
Parameters: dose 300 mg/kg, route intraperitoneal
Details: in vivo
measured quantity: mortality at 144 h (%)

1. CN1C(=O)CSC1=S [3-METHYL-RHODANINE]    80
2. O=C1CSC(=S)N1 [RHODANINE]    40

* * *

Test: Toxicity in Mus musculus ddY (mouse) assessed as mortality at 400 mg/kg, ip after 1 day
Assay type: organism-based
Set-up: dose 400 mg/kg, route intraperitoneal
Conditions: in vivo
Property: mortality at 24 h; scope: individual compounds
measured quantity: mortality at 24 h (%)

1. O=C1CSC(=S)N1 [RHODANINE]    80
2. O=C(O)CN1C(=O)CSC1=S [RHODANINE-3-ACETIC ACID]    0
